test: Phase I single-dose open-label pharmacokinetic study in participants with normal hepatic function and varying degrees of hepatic impairment; format: in vivo, human; details: human, plasma, po, 200 mg; single oral 200 mg belumosudil, fed; mild hepatic impairment; geometric mean (CV %)

- Molecule: "CC(C)NC(=O)COc1cccc(-c2nc(Nc3ccc4[nH]ncc4c3)c3ccccc3n2)c1 [belumosudil]"
  CL/F (mL/min): 208

---

test: Phase I single-dose open-label pharmacokinetic study in participants with normal hepatic function and varying degrees of hepatic impairment; type: in vivo, human; conditions: human, plasma, po, 200 mg, geometric means across participants with hepatic impairment (mild, moderate, severe); read-out: Vz/F

- Smiles: "CC(C)NC(=O)COc1cccc(-c2nc(Nc3ccc4[nH]ncc4c3)c3ccccc3n2)c1"
  Vd/F: "76.6 to 105 L"
